The following sequences are listed with their measured target mRNA inhibition values.
- target under test: APOL1
- condition info: ASO, A431, 2 µM
After the bases stand the sugars from the 5' end (letter, count) and the backbone: PS all phosphorothioate, else s phosphorothioate and o phosphodiester by linkage. Methylation of C is not given here. e = 2'-O-(2-methoxyethyl) (MOE); k = constrained ethyl (cEt); d = 2'-deoxy (DNA)
Provide the reading as a plain figure in %.

Q. Fill in the blank: the reported target mRNA inhibition of ATTCAGAATTTCCACT (sugars k3 d4 k3 e1 d5, PS) is ____.
A. 89

Q. Entry GCTTTAAACTCAGGTG (sugars kkddddekekeddddd, PS) has what target mRNA inhibition?
A. 92

Q. Could you tell me which target mRNA inhibition is on file for CGCAATGCTGACTTGG (sugars kkkddddkekekdddd, PS) ?
A. 68

Q. Please look up its target mRNA inhibition: CTTTAAACTCAGGTGA (sugars kkddddkdkdkddddd, PS)
A. 89

Let's switch to this sequence now.
Q. Given the sequence CATTCAGAATTTCCAC (sugars k3 d4 k3 e1 d5, PS) , what is its reported target mRNA inhibition?
A. 92

----------
- target under test: IRF5
- condition info: ASO, KARPAS-229, 4 µM
After the bases stand the sugars from the 5' end (letter, count) and the backbone: PS all phosphorothioate, else s phosphorothioate and o phosphodiester by linkage. Methylation of C is not given here. e = 2'-O-(2-methoxyethyl) (MOE); k = constrained ethyl (cEt); d = 2'-deoxy (DNA)
Each item that follows carries a reported target mRNA inhibition.
Reply with a number, then the unit it belongs to.

See these solved cases before continuing.
Q. I'm curious: which target mRNA inhibition was measured for CCCAATGCAACATCCA (sugars kdddddddddkekeke, PS) tested on IRF5?
A. 0%

Q. Form field - read-out: target mRNA inhibition; system: IRF5; submitted item: AGGAAGTGAGTCTCAA (sugars kkkdddddddddkeke, PS)
A. 21%

Q. State its target mRNA inhibition on IRF5: CACATCTCCACATCAG (sugars kekdddddddddeekk, PS)
A. 26%

Q. Please tell me: target mRNA inhibition of GTCTTGACCTCCCGCT (sugars kkdddddddddkekek, PS) , system IRF5?
A. 40%

Q. Param readout = target mRNA inhibition; param system = IRF5; param query = CATTCCATATACACAC (sugars kkkddddddddkdkdk, PS) ; response: value
A. 40%

Q. Lab request: please report target mRNA inhibition under test system IRF5 for CACATCTCCACATCAG (sugars kkkdddddddddkeke, PS)
A. 38%

Q. Checklist item: target mRNA inhibition tested on IRF5, entry ACCACTGTGTACCCCA (sugars kkdddddddddkekek, PS) , value?
A. 17%

Q. Lab note: need target mRNA inhibition with IRF5 for entry CAGGTTCTTGGACTCT (sugars kddddddddddkekek, PS) , please look it up.
A. 0%

Q. For the record TGCTCTAAACCATTCT (sugars k3 d10 k3, PS) , what value of target mRNA inhibition is listed for IRF5?
A. 0%

Q. Missing value: target mRNA inhibition, IRF5, entry AATTTTGCATTCCATA (sugars k3 d10 k3, PS) . Fill in?
A. 41%

Further cases:
Q. # query: target mRNA inhibition | item GTTCTTGGACTCTCAA (sugars k2 d9 e3 k2, PS) | system: IRF5
A. 22%

Q. What target mRNA inhibition appears in the records for this sequence with IRF5? ATCACCACTGTGTACC (sugars kkkddddddddkekek, PS)
A. 0%
